- Test system: CFPAC-1 (human pancreatic cancer cell)
- ASSAY_REMARKS: Cell viability assay (Promega CellTiter-Glo), inhibitory effect on CFPAC-1
- Assay type: cell-based
- SETTINGS: 72 h, 3 days of culture
Note to self: IC50 under 9 µM means 1 (yes), ties and anything higher get 0 (no).

Past entries and their recorded results:
- CCc1c2c(OC)c(OC)ccc2cc2[n+]1CCc1cc3c(cc1-2)OCO3: 0 (no)
- COc1ccc2cc3[n+](cc2c1OCC(=O)/C=C/c1ccc(C)cc1)CCc1cc2c(cc1-3)OCO2: 1 (yes)

Is IC50 strictly under 9 µM for the entry CCCCC(=O)Oc1c(OC)ccc2cc3[n+](cc12)CCc1cc2c(cc1-3)OCO2 ?
0 (no)

Could you please tell me whether IC50 recorded for COc1ccc2cc3[n+](cc2c1OCCCCOc1ccccc1)CCc1cc2c(cc1-3)OCO2 is less than 9 µM?
1 (yes)

Decide: IC50 of COc1ccc2c(Cc3ccc(C(F)(F)F)cc3)c3[n+](cc2c1OC)CCc1cc2c(cc1-3)OCO2 strictly below 9 µM?
0 (no)

Strictly below 9 µM in IC50? COc1ccc2cc3[n+](cc2c1OCCCCCCBr)CCc1cc2c(cc1-3)OCO2
1 (yes)

Lab note: confirm whether the reported IC50 for this compound is below 9 µM, equality not counting. compound: CCCCCCc1c2[n+](cc3c(OC)c(OC)ccc13)CCc1cc3c(cc1-2)OCO3
1 (yes)

Strictly below 9 µM in IC50? CCC(CC)C(=O)Oc1c(OC)ccc2cc3[n+](cc12)CCc1cc2c(cc1-3)OCO2
0 (no)

Is IC50 of COc1ccc2cc3[n+](cc2c1OCCCCCCNC(=O)OC(C)(C)C)CCc1cc2c(cc1-3)OCO2 strictly below 9 µM?
1 (yes)
